composite z-score values for the molecules below.
test: probe aNOTCH2 binding on compound microarray – biochemical, small-molecule microarray, 635/667 nm fluorescence, primary screen (AID 1121); conditions: higher = more signal;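 further: score merges feature fluorescence read at 667 nm with its signal to noise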
When you answer, write just the number.

molecule	readout.kind	reported.measurement
CC(C)C[C@H]1NC(=O)C([C@@H](C)OCc2ccccc2)NC(=O)[C@@]23C(=O)N[C@@H](Cc4ccccc4)C2[C@H](C)[C@@]2(C)O[C@H]2C3/C=C/C/C=C\CNC1=O (some centres not stated)	composite z-score	-0.0148
C=C(COC)C(=O)CC[C@@H](OC(=O)c1ccccc1-c1ccccc1C(=O)O)c1ccc(OCCO)cc1	composite z-score	-0.154
COC(=O)[C@@]1(Cc2ccccc2)[C@H]2c3cc(C(=O)N(C)C)n(CCSC(=N)N)c3C[C@H]2CN1C(=O)c1ccccc1	composite z-score	0.0591
CCCC=C(CCC)[C@@H](NC(=O)c1ccc(C(F)(F)F)cc1)c1ccc(C(F)(F)F)cc1	composite z-score	0.105
O=C(O)[C@H](Cc1ccccc1)n1cc(C2(O)CCCCC2)nn1	composite z-score	-0.147
N#Cc1ccc(C(O)C2C=CC3C(=O)NC(=O)C3N2Nc2ccc(Cl)cc2Cl)cc1 (configuration not stated)	composite z-score	0.132
Cc1ccc(S[C@]2(C(=O)NC(C)C)CC(=O)N(C3CCCCC3)[C@@H]2c2ccc(CO)cc2I)cc1	composite z-score	-0.0727
CC(C)=CCCC=C(C)C(O)C1C=CC2C(=O)N(c3ccccc3)C(=O)C2N1Nc1ccc(C#N)cc1 (configuration not stated)	composite z-score	-0.157

Lab note: measured composite z-score of CCCN1C(=O)[C@@]2(c3ccc([N+](=O)[O-])cc3)CC(=O)N(CC34CC5CC(CC(C5)C3)C4)[C@@H]2c2ccc(CO)cc21 was -0.199

Lab note: measured composite z-score of O=C1N(Cc2ccccc2)c2ccccc2C[C@@]12COC(c1ccc(OCCCO)cc1)=N2 was -0.0595

Lab note: measured composite z-score of C=C(CCCC)C(=O)CC[C@@H](OC(=O)c1ccccc1-c1ccccc1C(=O)O)c1ccccc1OCCO was -0.14
